Hello, the source for this data is patent US20050020501A1, in case you need it.

Molecular target: MurA (E. coli) (Escherichia coli, UniProt P0A749)
Construct: made in house
Sequence (P0A749 whole entry): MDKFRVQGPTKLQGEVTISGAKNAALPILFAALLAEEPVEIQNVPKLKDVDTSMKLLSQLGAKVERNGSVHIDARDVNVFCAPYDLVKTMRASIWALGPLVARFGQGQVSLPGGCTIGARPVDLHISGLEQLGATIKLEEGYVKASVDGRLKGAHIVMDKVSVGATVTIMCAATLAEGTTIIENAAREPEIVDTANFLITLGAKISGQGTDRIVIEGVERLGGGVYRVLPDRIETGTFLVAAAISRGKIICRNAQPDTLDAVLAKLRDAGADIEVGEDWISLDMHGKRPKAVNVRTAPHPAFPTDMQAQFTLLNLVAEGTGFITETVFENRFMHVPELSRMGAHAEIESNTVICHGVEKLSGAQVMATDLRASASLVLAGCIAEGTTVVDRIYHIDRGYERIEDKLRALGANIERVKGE
Test: MurA kinetic assay, Malachite Green detection of inorganic phosphate release
Type: biochemical
Settings: MurA, varied substrate PEP, mixed type inhibition, second constant; read-out: Ki′ vs. PEP
Method: All chemicals including ATA and its salt forms are from Aldrich. SKF-26488-W3 was isolated as a high-throughput screen hit against EPSPS. […] The assays for both EPSPS and MurA are based on the detection of inorganic phosphate release. A fluorescence coupled assay was used for EPSPS and was performed in 100 mM HEPES, pH 7.0, 1 mM NH4Cl, 100 mM KCl. […] The Ki values were determined with fixed concentration of one substrate and varying concentrations of the other substrate and inhibitor. […]
Measured Quantity: Ki (µM)
Record the value in µM, omitting the unit from your answer.

Item O=C1C=CC(=C(c2ccc(O)cc2)c2ccc(O)cc2)C=C1 [Rosolic Acid] : provide Ki
273

* * *

Target: MurA (E. coli) (Escherichia coli)
Construct: made in house
Assay: MurA kinetic assay, Malachite Green detection of inorganic phosphate release
Type: biochemical
Conditions: MurA, varied substrate UDPAG; read-out: Ki vs. UDPAG
Measured Quantity: Ki (µM)
All answers are understood in µM, so give the number only.

State its Ki: "O=C1C=CC(=C(c2ccc(O)cc2)c2ccc(O)cc2)C=C1"
44.7

* * *

Target: MurA (E. coli) (Escherichia coli)
Construct: made in house
Experiment: MurA kinetic assay, Malachite Green detection of inorganic phosphate release
Assay type: biochemical
Conditions: MurA, varied substrate PEP, mixed type inhibition; read-out: Ki vs. PEP
Measured Quantity: Ki (µM)
Enter your answer as a number in µM; do not include the unit.

Supply measured Ki of "O=C1C=CC(=C(c2ccc(O)cc2)c2ccc(O)cc2)C=C1" in your reply.
10.9

* * *

Biological target: EPSP Synthase (S. pneumoniae) (Streptococcus pneumoniae serotype 4, UniProt Q9S400)
Sequence (Q9S400 whole entry): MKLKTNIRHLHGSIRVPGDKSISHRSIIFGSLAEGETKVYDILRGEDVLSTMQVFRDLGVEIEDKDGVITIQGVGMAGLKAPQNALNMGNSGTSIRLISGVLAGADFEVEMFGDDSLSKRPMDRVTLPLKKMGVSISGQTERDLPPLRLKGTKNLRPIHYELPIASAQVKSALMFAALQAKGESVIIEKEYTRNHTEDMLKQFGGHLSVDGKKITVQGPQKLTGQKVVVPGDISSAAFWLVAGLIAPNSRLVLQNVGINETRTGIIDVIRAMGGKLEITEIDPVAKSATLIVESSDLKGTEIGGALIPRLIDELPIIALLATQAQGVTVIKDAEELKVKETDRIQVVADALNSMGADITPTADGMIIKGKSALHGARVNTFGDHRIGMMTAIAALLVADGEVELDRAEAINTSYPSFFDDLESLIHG
Measured Quantity: Ki

Give recorded Ki. "O=C(O)C1=CC(=C(c2ccc(O)c(C(=O)O)c2)c2ccc(O)c(C(=O)O)c2)C=CC1=O"
2.8 to 4.5 µM

* * *

Molecular target: MurA (E. coli) (Escherichia coli)
Construct: made in house
Test: MurA kinetic assay, Malachite Green detection of inorganic phosphate release
Format: biochemical
Details: Ki vs. UDPAG, MurA, varied substrate UDPAG
Measured Quantity: pKi
Kindly note that pKi refers to -log10 of the concentration in mol/L and answer with the value alone.

State pKi on MurA (E. coli) (Escherichia coli). Entry: O=C(O)C1=CC(=C(c2ccc(O)c(C(=O)O)c2)c2ccc(O)c(C(=O)O)c2)C=CC1=O [Aurin Tricarboxylic Acid]
6.64
